Would you mind telling me the reported shrunken log2 fold change of each entry?
Test system: Escherichia coli TOP10
measurement protocol: shrunken log2 fold change of peptide-encoding DNA abundance (4.5 h post-induction vs induction); higher = less antimicrobial activity (less host growth inhibition)
experimental parameters: time post-induction: 4.5 h; library: site-saturation at positions 5, 18, 19, 20

RRIRRRPPRLPRPRPRPQARPRP 0.246

Hi there! I need shrunken log2 fold change for each item below, if you can.
1. RRIRQRPPRLPRPRPRPCKYPRP
2. RRIRCRPPRLPRPRPRPCDGPRP
3. RRIRQRPPRLPRPRPRPRRYPRP
4. RRIRHRPPRLPRPRPRPKQNPRP
5. RRIRWRPPRLPRPRPRPMVGPRP
6. RRIRWRPPRLPRPRPRPPCDPRP

[-0.0164, 0.0624, 0.112, 0.139, 0.171, 0.255]

----------
Would you mind telling me the reported shrunken log2 fold change of each entry?
System: Escherichia coli TOP10
measurement protocol: shrunken log2 fold change of peptide-encoding DNA abundance (4.5 h post-induction vs induction); higher = less antimicrobial activity (less host growth inhibition)
experimental parameters: time post-induction: 4.5 h; library: site-saturation at positions 5, 18, 19, 20
One number for each entry.

Take a look at these entries with their results.
RRIRYRPPRLPRPRPRPRDMPRP -0.339
RRIRIRPPRLPRPRPRPHVTPRP -0.132
RRIRHRPPRLPRPRPRPIFPPRP 0.033
RRIRWRPPRLPRPRPRPNPEPRP -0.0123
RRIRQRPPRLPRPRPRPVTTPRP 0.0606

Hi there! I need shrunken log2 fold change for each item below, if you can.
1. RRIRMRPPRLPRPRPRPKFNPRP
2. RRIRNRPPRLPRPRPRPQMMPRP
3. RRIRRRPPRLPRPRPRPWDEPRP
4. RRIRYRPPRLPRPRPRPQIAPRP
5. RRIRNRPPRLPRPRPRPACIPRP
6. RRIRCRPPRLPRPRPRPRMHPRP
7. RRIRKRPPRLPRPRPRPQKSPRP
8. RRIRSRPPRLPRPRPRPIGFPRP

-0.111
-0.227
0.0108
-0.242
0.0248
0.066
0.0653
-0.0486

Hi there! I need shrunken log2 fold change for each item below, if you can.
1. RRIRWRPPRLPRPRPRPFMHPRP
2. RRIRWRPPRLPRPRPRPMTAPRP

-0.153
0.473

----------
Would you mind telling me the reported shrunken log2 fold change of each entry?
Test system: Escherichia coli TOP10;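 further: peptides expressed intracellularly from a pBAD plasmid library in pooled LB shake-flask culture, induced with 0.3% L-arabinose, DNA abundance read by NGS, three biological replicates, DESeq2 with apeglm shrinkage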
measurement protocol: shrunken log2 fold change of peptide-encoding DNA abundance (4.5 h post-induction vs induction); higher = less antimicrobial activity (less host growth inhibition)
experimental parameters: time post-induction: 4.5 h; library: site-saturation at positions 5, 18, 19, 20

Take a look at these entries with their results.
RRIRSRPPRLPRPRPRPVDDPRP -0.14
RRIRARPPRLPRPRPRPRPWPRP 0.499
RRIRKRPPRLPRPRPRPYNTPRP -0.339

Hi there! I need shrunken log2 fold change for each item below, if you can.
1. RRIRKRPPRLPRPRPRPHQMPRP
2. RRIRVRPPRLPRPRPRPTDVPRP
3. RRIRPRPPRLPRPRPRPQAIPRP
4. RRIRMRPPRLPRPRPRPKPDPRP

[0.0681, 0.0418, 0.186, 1.13]

src = the supplement of paper PMC9112550
